# system name: SPIN1 triple tudor domain
# Sequence (chain, as listed by the source): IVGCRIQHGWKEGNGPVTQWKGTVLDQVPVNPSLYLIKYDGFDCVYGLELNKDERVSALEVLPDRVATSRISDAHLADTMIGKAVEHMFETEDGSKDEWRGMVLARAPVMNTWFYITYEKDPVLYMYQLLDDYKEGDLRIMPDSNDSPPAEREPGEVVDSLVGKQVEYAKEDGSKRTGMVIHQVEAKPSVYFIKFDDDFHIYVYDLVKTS
# assay overview: BLI
Bridge positions count the residues as written; N and C are the ends. Ends that are not written are not given here.
readout label: Kd

The value of Kd measured for the binder {CH2CO}-YYLTHPYPSVFRTC (thioether N-14) [OC9, de novo cyclic peptide from mRNA display] turned out to be > 1000 nM

Entry source: paper PMC10321576
